# MEASURED ON: T1, recombinant human CLL1 extracellular domain, His-tagged (CLL1-His protein) (human, UniProt Q5QGZ9 65-265)
# T1 construct: ECD made by transient expression in HEK293 (293-F) cells and purified by IMAC; also called recombinant human CLL1 protein; ECD of CLL1; not shown: His tag (protein called CLL1-His, purified by IMAC)
# T1 sequence: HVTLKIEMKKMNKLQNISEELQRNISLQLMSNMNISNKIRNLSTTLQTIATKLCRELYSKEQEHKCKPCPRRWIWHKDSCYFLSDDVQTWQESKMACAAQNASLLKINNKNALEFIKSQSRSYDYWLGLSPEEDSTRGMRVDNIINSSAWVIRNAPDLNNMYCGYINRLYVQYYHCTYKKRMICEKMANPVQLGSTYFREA
# TEST PROTOCOL: SPR (BIACORE T200), IgG1 on recombinant human CLL1; column KD, unit inferred
QUANTITY: Kd (nM)
Numeric only. Scale: nM

Field: example entries. Status: answers known.
BINDER | UOM | NUMERIC VALUE
AS138943 (antibody, V domains shown, Called 'IgG1', from a camel phage library, expressed in IPTG-induced supernatant with a C-terminal His-tag; also called anti-CLL1 IgG1) VH: AVQLVESGGGLVQPGGSLRLSCTASGFNFGLYAMSWVRQAPGKGLEWVSGINGGGGLTYYPDSMKGRFTISRDVAKNTLYLELNSLKIEDTAMYYCAKDPDMWTAFPNALDAWGQGTLVTVSS VL: SYELTQPSAVSVSLGETARITCQGGNIGINYANWYQQKPGQAPVLVIYGDDRRPSGIPERFSGSISGGTATLTISGAQAEDEADYYCQSADSSPYVVFGGGTHLTVL | nM | 39
AS141553 (antibody, V domains shown, Called 'IgG1', from a camel phage library, expressed in IPTG-induced supernatant with a C-terminal His-tag; also called anti-CLL1 IgG1) VH: QVQLVESGGGLVQPGGSLRLSCAASGFTFSSVDMTWVRQAPGKGLEWVSTINTGSGSTYYADSVKGRFTISRDNAKNTLYLQMNSLKTEDTAVYYCATDLAGGGAWFTAPFHYWGQGTQVTISS VL: SYELTQPSAVSVSLGETARITCQGGNVGYYYASWYQQKPGQAPVLVIYEDSERPSGIPERFSGSSSGGTATLTISGAQAEDEADYYCQSADSSGYNAAVFGGGTHLTVL | nM | 3.5

Request: Indicate the recorded Kd value for this binder: AS138658 (antibody, V domains shown, Called 'IgG1', from a camel phage library, expressed in IPTG-induced supernatant with a C-terminal His-tag; also called anti-CLL1 IgG1) VH: QVQLVQSGGSLRLSCAASGFTFSSYDMSWVRQAPGKGLEWVSTINSGGETTYYRDSVKGRFTISRDNAKNTLYLQLNSLKTEDTAMYYCAKGGGWEYYGMDYWGKGTLVTISS VL: SYELTQPSAVSVSLGQTARITCQGGNLGSSYAYWYQQKPGQAPVLVIYADDSRPSGIPERFSGSSSGGTATLTISGAQAEDEADYYCQSYDSSSYDIVFGGGTHLTVL
Result: 21
